Where these numbers come from: patent US8772307B2

studyTarget: vanilloid receptor (VR1) (Homo sapiens)
Construct: expressed in transfected cells; host or cells: CHO K1 cells (ECACC), stably transfected
Sequence (Q8NER1 whole entry): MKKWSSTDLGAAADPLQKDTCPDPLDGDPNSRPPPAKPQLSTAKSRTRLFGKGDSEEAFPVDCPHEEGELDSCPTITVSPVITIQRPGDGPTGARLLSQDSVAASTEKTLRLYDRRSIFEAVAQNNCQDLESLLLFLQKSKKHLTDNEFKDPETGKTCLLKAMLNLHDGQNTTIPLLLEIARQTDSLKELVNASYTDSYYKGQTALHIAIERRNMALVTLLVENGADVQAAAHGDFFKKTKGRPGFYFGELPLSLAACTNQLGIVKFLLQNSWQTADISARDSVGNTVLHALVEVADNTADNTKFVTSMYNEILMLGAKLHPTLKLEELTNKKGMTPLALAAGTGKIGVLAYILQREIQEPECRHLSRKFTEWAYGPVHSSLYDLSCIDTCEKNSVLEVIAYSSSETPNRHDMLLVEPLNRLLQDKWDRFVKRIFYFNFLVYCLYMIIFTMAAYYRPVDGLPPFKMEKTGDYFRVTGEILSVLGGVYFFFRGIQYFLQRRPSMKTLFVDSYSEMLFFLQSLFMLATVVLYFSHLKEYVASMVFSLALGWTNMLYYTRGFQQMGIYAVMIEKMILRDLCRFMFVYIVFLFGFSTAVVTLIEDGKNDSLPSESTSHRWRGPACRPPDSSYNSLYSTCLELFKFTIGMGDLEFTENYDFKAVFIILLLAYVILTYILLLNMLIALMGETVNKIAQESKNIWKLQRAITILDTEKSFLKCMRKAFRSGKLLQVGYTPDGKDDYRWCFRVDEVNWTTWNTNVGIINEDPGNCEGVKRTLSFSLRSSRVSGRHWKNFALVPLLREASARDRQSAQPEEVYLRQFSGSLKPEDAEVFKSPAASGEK
assayRemarks: Functional testing on vanilloid receptor (VR1): FLIPR Ca2+ inflow assay in CHO K1 cells stably transfected with the VR1 gene
Assay type: cell-based
setupConditions: CHO-K1, stimulation compared to 10 μM CP (capsaicin)
Text: II. Functional Testing Carried Out on the Vanilloid Receptor (VR1) The agonistic or antagonistic effect of the substances to be tested can also be determined on the vanilloid receptor (VR1) using the following assay. According to this assay, the Ca^2+ inflow is quantified through the channel using a Ca^2+-sensitive dye (type Fluo-4, Molecular Probes Europe BV, Leiden, Netherlands) in a fluorescent imaging plate reader (FLIPR, Molecular Devices, Sunnyvale, USA). […]
Exercise: for every item that follows, state its recorded activation at 10 µM.
Only the number, expressed in %, is required.

Problem: Give recorded activation at 10 µM with vanilloid receptor (VR1) (Homo sapiens) for the following molecule: CC(C)(C)c1ccc(NC(=O)N2CCC3(CC2)CC(c2ccc(F)cc2)=NO3)cc1
Solution: 1

Problem: Give recorded activation at 10 µM with vanilloid receptor (VR1) (Homo sapiens) for the following molecule: O=C(Nc1ccc(C(F)(F)F)cc1)N1CCC2(CC1)CC(c1cccc(F)c1)=NO2
Solution: 0

Problem: Give recorded activation at 10 µM with vanilloid receptor (VR1) (Homo sapiens) for the following molecule: Cc1ccc(C2=NOC3(CCN(C(=O)Nc4cc(C(F)(F)F)ccc4Cl)CC3)C2)cc1
Solution: 0.31

Problem: Give recorded activation at 10 µM with vanilloid receptor (VR1) (Homo sapiens) for the following molecule: CC(C)(C)c1ccc(NC(=O)N2CCC3(CC2)CC(c2ccc(C(F)(F)F)cc2)=NO3)cc1
Solution: 2.49

Problem: Give recorded activation at 10 µM with vanilloid receptor (VR1) (Homo sapiens) for the following molecule: CC(C)(C)c1ccc(/C(=C/C(=O)N2CCC3(CC2)CC(c2cccc(F)c2)=NO3)c2ccc(Cl)c(Cl)c2)cc1
Solution: 0

Problem: Give recorded activation at 10 µM with vanilloid receptor (VR1) (Homo sapiens) for the following molecule: CCc1ccc(NC(=O)N2CCC3(CC2)CC(c2ccc(C(C)(C)C)cc2)=NO3)cc1
Solution: 1.92

Problem: Give recorded activation at 10 µM with vanilloid receptor (VR1) (Homo sapiens) for the following molecule: O=C(Nc1ccc(OC(F)(F)F)cc1)N1CCC2(CC1)CC(c1ccccc1)=NO2
Solution: 0.28

Problem: Give recorded activation at 10 µM with vanilloid receptor (VR1) (Homo sapiens) for the following molecule: COc1cccc(C2=NOC3(CCN(C(=O)NCCc4ccccc4)CC3)C2)c1
Solution: 0.07

Problem: Give recorded activation at 10 µM with vanilloid receptor (VR1) (Homo sapiens) for the following molecule: O=C(Nc1ccccc1)N1CCC2(CC1)CC(c1ccc(Cl)cc1)=NO2
Solution: 0.01

Problem: Give recorded activation at 10 µM with vanilloid receptor (VR1) (Homo sapiens) for the following molecule: COc1cccc(C2=NOC3(CCN(C(=O)Nc4ccc(OC(F)(F)F)cc4)CC3)C2)c1
Solution: -0.28

Problem: Give recorded activation at 10 µM with vanilloid receptor (VR1) (Homo sapiens) for the following molecule: CCc1ccc(NC(=O)N2CCC3(CC2)CC(c2ccc(C(F)(F)F)cc2)=NO3)cc1
Solution: 0.06

Problem: Give recorded activation at 10 µM with vanilloid receptor (VR1) (Homo sapiens) for the following molecule: O=C(Nc1ccccc1Oc1ccccc1)N1CCC2(CC1)CC(c1ccc(C(F)(F)F)cc1)=NO2
Solution: -0.35

Problem: Give recorded activation at 10 µM with vanilloid receptor (VR1) (Homo sapiens) for the following molecule: CCCc1ccccc1NC(=O)N1CCC2(CC1)CC(c1ccccc1)=NO2
Solution: -0.14

Problem: Give recorded activation at 10 µM with vanilloid receptor (VR1) (Homo sapiens) for the following molecule: Cc1ccc(C2=NOC3(CCN(C(=O)Nc4ccc(C(C)C)cc4)CC3)C2)cc1
Solution: -0.35

Problem: Give recorded activation at 10 µM with vanilloid receptor (VR1) (Homo sapiens) for the following molecule: COc1cccc(C2=NOC3(CCN(C(=O)Nc4cc(C(F)(F)F)ccc4Cl)CC3)C2)c1
Solution: -0.04

Problem: Give recorded activation at 10 µM with vanilloid receptor (VR1) (Homo sapiens) for the following molecule: COc1cccc(C2=NOC3(CCN(C(=O)/C=C/c4ccc(C(F)(F)F)nc4N4CCOCC4)CC3)C2)c1
Solution: 0

====

studyTarget: rat-species vanilloid receptor 1 (VR1/TRPV1) (Rattus norvegicus)
Construct: endogenous in cells; host or cells: primary cells dissociated from rat dorsal root ganglia (DRG)
assayRemarks: Functional testing on vanilloid receptor 1 (VR1/TRPV1): FLIPR Ca2+ inflow assay in rat dorsal root ganglia cells (% activation / % inhibition vs capsaicin)
Format: cell-based
setupConditions: inhibition compared to 10 μM CP (capsaicin)
propertyLabel: inhibition at 10 µM (%)
Only the number, expressed in %, is required.

Problem: Record request: inhibition at 10 µM value, item Cc1ccc(C2=NOC3(CCN(C(=O)Nc4cc(C(F)(F)F)ccc4Cl)CC3)C2)cc1
Solution: 47.8

Problem: Record request: inhibition at 10 µM value, item COc1cccc(C2=NOC3(CCN(C(=O)Nc4cccc(F)c4)CC3)C2)c1
Solution: 47.8

Problem: Record request: inhibition at 10 µM value, item CC(C)(C)c1ccc(NC(=O)N2CCC3(CC2)CC(c2cccc(Cl)c2)=NO3)cc1
Solution: 101

Problem: Record request: inhibition at 10 µM value, item COc1cc(C2=NOC3(CCN(C(=O)Nc4ccc(C(C)(C)C)cc4)CC3)C2)ccc1Cl
Solution: 99

Problem: Record request: inhibition at 10 µM value, item Cc1ccc(C2=NOC3(CCN(C(=S)NC4CCCC4)CC3)C2)cc1
Solution: 48.4

Problem: Record request: inhibition at 10 µM value, item COc1cccc(C2=NOC3(CCN(C(=O)Nc4ccc(Cl)cc4)CC3)C2)c1
Solution: 74

Problem: Record request: inhibition at 10 µM value, item CC(C)(C)c1ccc(NC(=O)N2CCC3(CC2)CC(c2ccc(F)cc2)=NO3)cc1
Solution: 100

Problem: Record request: inhibition at 10 µM value, item CC(C)(C)c1ccc(NC(=O)N2CCC3(CC2)CC(c2ccccc2)=NO3)cc1
Solution: 98.5

====

Exercise: for every item that follows, state its recorded IC50.
studyTarget: rat-species vanilloid receptor 1 (VR1/TRPV1) (Rattus norvegicus)
Construct: endogenous in cells
assayRemarks: Functional testing on vanilloid receptor 1 (VR1/TRPV1): FLIPR Ca2+ inflow assay in rat dorsal root ganglia cells (% activation / % inhibition vs capsaicin)
setupConditions: capsaicin (CAP) stimulus, average
Description: […] In the FLIPR assay, the Ca^2+ inflow is quantified using a Ca^2+-sensitive dye (type Fluo-4, Molecular Probes Europe BV, Leiden, Netherlands) in a fluorescent imaging plate reader (FLIPR, Molecular Devices, Sunnyvale, USA), as described hereinafter. […] The agonistic or antagonistic effect of the substances to be tested can be determined on the rat-species vanilloid receptor 1 (VR1/TRPV1) using the following assay. […]
Units required after the number.

Problem: Record request: IC50 value, item CC(C)c1ccc(C=CC(=O)N2CCC3(CC2)CC(c2ccccc2)=NO3)cc1
Solution: 270 nM

Problem: Record request: IC50 value, item O=C(/C=C/c1cccc(Br)c1)N1CCC2(CC1)CC(c1ccccc1)=NO2
Solution: 1360 nM

Problem: Record request: IC50 value, item O=C(C=Cc1ccc(C(F)(F)F)cc1)N1CCC2(CC1)CC(c1ccccc1)=NO2
Solution: 150 nM

Problem: Record request: IC50 value, item COc1cccc(C2=NOC3(CCN(C(=O)/C=C/c4ccc(C(F)(F)F)nc4N4CCOCC4)CC3)C2)c1
Solution: 478 nM

Problem: Record request: IC50 value, item CC(C)(C)c1ccc(C=CC(=O)N2CCC3(CC2)CC(c2ccccc2)=NO3)cc1
Solution: 181 nM

Problem: Record request: IC50 value, item CC(C)(C)c1ccc(NC(=O)N2CCC3(CC2)CC(c2ccccc2)=NO3)cc1
Solution: 78 nM

Problem: Record request: IC50 value, item CC1CN(C(=O)Nc2ccc(C(C)(C)C)cc2)CCC12CC(c1ccccc1)=NO2 (stereo not drawn)
Solution: 175 nM

Problem: Record request: IC50 value, item CC1CN(C(=O)Nc2ccc(C(F)(F)F)cc2)CCC12CC(c1ccccc1)=NO2 (stereo not drawn)
Solution: 59.8 nM

Problem: Record request: IC50 value, item CC(C)(C)c1ccc(C(/C=C/c2ccccc2)=C/C(=O)N2CCC3(CC2)CC(c2cccc(F)c2)=NO3)cc1
Solution: 148 nM

====

studyTarget: rat-species vanilloid receptor 1 (VR1/TRPV1) (Rattus norvegicus, UniProt O35433)
Construct: endogenous in cells; host or cells: primary cells dissociated from rat dorsal root ganglia (DRG)
Sequence (O35433 whole entry): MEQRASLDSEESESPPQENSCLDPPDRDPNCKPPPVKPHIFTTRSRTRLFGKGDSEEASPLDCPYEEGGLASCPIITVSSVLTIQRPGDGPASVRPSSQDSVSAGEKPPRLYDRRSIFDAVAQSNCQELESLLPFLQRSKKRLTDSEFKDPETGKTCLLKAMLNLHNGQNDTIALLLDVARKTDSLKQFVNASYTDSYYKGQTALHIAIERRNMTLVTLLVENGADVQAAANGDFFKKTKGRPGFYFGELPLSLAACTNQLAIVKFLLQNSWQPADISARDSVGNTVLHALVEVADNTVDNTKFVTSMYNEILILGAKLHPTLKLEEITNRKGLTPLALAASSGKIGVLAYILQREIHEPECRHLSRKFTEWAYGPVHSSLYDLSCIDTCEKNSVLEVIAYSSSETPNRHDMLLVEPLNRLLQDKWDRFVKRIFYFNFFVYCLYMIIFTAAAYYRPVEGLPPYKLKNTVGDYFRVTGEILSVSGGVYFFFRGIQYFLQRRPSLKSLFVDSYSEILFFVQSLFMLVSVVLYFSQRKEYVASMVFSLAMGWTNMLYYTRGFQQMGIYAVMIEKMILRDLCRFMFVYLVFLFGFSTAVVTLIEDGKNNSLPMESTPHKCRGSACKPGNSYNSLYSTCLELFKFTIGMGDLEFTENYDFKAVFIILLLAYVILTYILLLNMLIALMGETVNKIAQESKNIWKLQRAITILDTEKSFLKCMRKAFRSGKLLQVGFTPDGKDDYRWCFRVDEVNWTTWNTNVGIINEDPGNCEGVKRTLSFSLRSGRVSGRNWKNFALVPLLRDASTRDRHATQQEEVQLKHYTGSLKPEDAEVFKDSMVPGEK
assayRemarks: Functional testing on vanilloid receptor 1 (VR1/TRPV1): FLIPR Ca2+ inflow assay in rat dorsal root ganglia cells (% activation / % inhibition vs capsaicin)
Assay type: cell-based
setupConditions: stimulation compared to 10 μM CP (capsaicin)
Source text: […] In the FLIPR assay, the Ca^2+ inflow is quantified using a Ca^2+-sensitive dye (type Fluo-4, Molecular Probes Europe BV, Leiden, Netherlands) in a fluorescent imaging plate reader (FLIPR, Molecular Devices, Sunnyvale, USA), as described hereinafter. […] The agonistic or antagonistic effect of the substances to be tested can be determined on the rat-species vanilloid receptor 1 (VR1/TRPV1) using the following assay. […]
Exercise: for every item that follows, state its recorded activation at 10 µM.
Only the number, expressed in %, is required.

Problem: Record request: activation at 10 µM value, item CC(C)c1ccc(NC(=O)N2CCC3(CC2)CC(c2ccc(Cl)cc2)=NO3)cc1
Solution: 0.38

Problem: Record request: activation at 10 µM value, item CC(C)(C)c1ccc(NC(=O)N2CCC3(CC2)CC(c2cccc(F)c2)=NO3)cc1
Solution: 6

Problem: Record request: activation at 10 µM value, item CSc1ccc(NC(=O)N2CCC3(CC2)CC(c2ccc(C)cc2)=NO3)cc1
Solution: -0.47

Problem: Record request: activation at 10 µM value, item CC(C)(C)c1ccc(NC(=O)N2CCC3(CC2)CC(c2cccc(Cl)c2)=NO3)cc1
Solution: 9

Problem: Record request: activation at 10 µM value, item Cc1ccc(C2=NOC3(CCN(C(=O)Nc4ccc(C(C)(C)C)cc4)CC3)C2)cc1
Solution: -0.43

Problem: Record request: activation at 10 µM value, item O=C(Nc1ccc(C(F)(F)F)cc1)N1CCC2(CC1)CC(c1ccc(Cl)cc1)=NO2
Solution: -0.43

Problem: Record request: activation at 10 µM value, item CC(C)c1ccc(NC(=O)N2CCC3(CC2)CC(c2ccccc2)=NO3)cc1
Solution: 0.02

Problem: Record request: activation at 10 µM value, item CC(C)(C)c1ccc(NC(=O)N2CCC3(CC2)CC(c2ccc(F)cc2)=NO3)cc1
Solution: 5
